Where do these numbers come from? They come from BindingDB's records for PubMed 32485533.

# Assay name: Inhibition of human recombinant sPLA2-V at 1 uM
Readout name: pIC50
Friendly reminder that pIC50 comes from taking -log10 of the concentration in mol/L.

Short answer for COc1ccc(-c2nc3c(C(N)=O)cccc3[nH]2)cc1 : pIC50 was 5.49
